Assay: Cytotoxicity against human HEL cells
Format: cell-based
Measured CC50 of individual entries
Provide only the numeric value, understood in µM.

Sample records with CC50:
> print(dat)
                              record.smiles  quantitative.readout
1  CCC/C=C/c1ccccc1-c1cc2cn([C@H]3C[C@H](O)[C@@H](CO)O3)c(=O)nc2o1                    41
2  CC/C=C/c1ccccc1-c1cc2cn([C@H]3C[C@H](O)[C@@H](CO)O3)c(=O)nc2o1                   102

Note: attention shifts to another entry.
Fill blank: measured CC50 of the compound CC/C=C/c1cccc(-c2cc3cn([C@H]4C[C@H](O)[C@@H](CO)O4)c(=O)nc3o2)c1 is ____.
68

----------
Let's look at some compounds and their measured EC50.
Tested on: Human alphaherpesvirus 3
Assay: Antiviral activity against Varicella Zoster virus Oka infected in HEL cells assessed as reduction in viral plaque formation after 5 days
Format: functional, organism-based
Conditions: Human alphaherpesvirus 3, Oka, 120 h
Respond numerically; units are µM and should not be typed.

Solved cases below.
> print(dat)
                              record.smiles  experimental.readout  quantitative.readout
1  CCC/C=C/c1ccccc1-c1cc2cn([C@H]3C[C@H](O)[C@@H](CO)O3)c(=O)nc2o1                  EC50                   8.4
2  C/C=C/c1ccccc1-c1cc2cn([C@H]3C[C@H](O)[C@@H](CO)O3)c(=O)nc2o1                  EC50                    12

Fill in the blank: the reported EC50 of CC/C=C/c1cccc(-c2cc3cn([C@H]4C[C@H](O)[C@@H](CO)O4)c(=O)nc3o2)c1 is ____.
1.9

Also check CCC/C=C/c1cccc(-c2cc3cn([C@H]4C[C@H](O)[C@@H](CO)O4)c(=O)nc3o2)c1
1.1

Now give it for CC/C=C/c1ccccc1-c1cc2cn([C@H]3C[C@H](O)[C@@H](CO)O3)c(=O)nc2o1 too.
33

Now consider CCC/C=C/c1ccc(-c2cc3cn([C@H]4C[C@H](O)[C@@H](CO)O4)c(=O)nc3o2)cc1 and answer again.
0.0003

Try C/C=C/c1ccc(-c2cc3cn([C@H]4C[C@H](O)[C@@H](CO)O4)c(=O)nc3o2)cc1 next.
0.004

Then what about the compound CC/C=C/c1ccc(-c2cc3cn([C@H]4C[C@H](O)[C@@H](CO)O4)c(=O)nc3o2)cc1 ?
0.0006

Can you check C/C=C/c1cccc(-c2cc3cn([C@H]4C[C@H](O)[C@@H](CO)O4)c(=O)nc3o2)c1 next?
13

----------
Test: Cytotoxicity against human HEL cells
Assay type: cell-based
Conditions: read-out: MIC
EXPERIMENTAL_READOUT: MCC

Guide cases for MCC, answers given:
> print(dat)
                                   compound  experimental.readout    result
1  CCCCc1ccc(-c2cc3cn([C@H]4C[C@H](O)[C@@H](CO)O4)c(=O)nc3o2)cc1                   MCC   ≥ 50 µM
2  CCCc1ccc(-c2cc3cn([C@H]4C[C@H](O)[C@@H](CO)O4)c(=O)nc3o2)cc1                   MCC   ≥ 50 µM
3  CCC/C=C/c1cccc(-c2cc3cn([C@H]4C[C@H](O)[C@@H](CO)O4)c(=O)nc3o2)c1                   MCC  ≥ 200 µM
4  CC/C=C/c1ccccc1-c1cc2cn([C@H]3C[C@H](O)[C@@H](CO)O3)c(=O)nc2o1                   MCC    400 µM
5  CCCCCc1ccc(-c2cc3cn([C@H]4C[C@H](O)[C@@H](CO)O4)c(=O)nc3o2)cc1 [CF1743]                   MCC   ≥ 50 µM

Which value of MCC has been reported for C/C=C/c1ccc(-c2cc3cn([C@H]4C[C@H](O)[C@@H](CO)O4)c(=O)nc3o2)cc1 in the records?
≥ 50 µM

How about CC/C=C/c1cccc(-c2cc3cn([C@H]4C[C@H](O)[C@@H](CO)O4)c(=O)nc3o2)c1 ?
≥ 20 µM

Quick one: CCC/C=C/c1ccc(-c2cc3cn([C@H]4C[C@H](O)[C@@H](CO)O4)c(=O)nc3o2)cc1
> 5 µM

Would you kindly repeat that for C/C=C/c1ccccc1-c1cc2cn([C@H]3C[C@H](O)[C@@H](CO)O3)c(=O)nc2o1 ?
400 µM

Then what about the compound C/C=C/c1cccc(-c2cc3cn([C@H]4C[C@H](O)[C@@H](CO)O4)c(=O)nc3o2)c1 ?
> 200 µM

Please answer likewise for CC/C=C/c1ccc(-c2cc3cn([C@H]4C[C@H](O)[C@@H](CO)O4)c(=O)nc3o2)cc1
≥ 5 µM

Next record, please: CCC/C=C/c1ccccc1-c1cc2cn([C@H]3C[C@H](O)[C@@H](CO)O3)c(=O)nc2o1
80 µM
